- assay_text: proliferation blockers of H69AR lung cancer cells, primary screen, cell-based, human, 86K library (AID 598);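 note: multidrug resistant small cell line overexpressing MRP-1 efflux transporter; 100% = mean luminescence of untreated control wells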
- condition_details: H69AR lung tumor viability, ATP luminescence, 72 h; at 10 µM; hits give low values
Hit rate of the full screen: of about 85,000 compounds, about 5,100 (6%) were called active. The list comes from a sample in which actives are over-represented; it also holds close analogues and randomly drawn compounds.
Label class 1 when viability < 80%; otherwise class 0.

INSERT INTO results (compound, assigned_label) VALUES
  ('CC(=O)Nc1ccc(NC(=O)CSCc2cnn(-c3ccccc3)c2-n2cccc2)cc1', 'class 0'),
  ('O=C(NCCC1=CCCCC1)C1CCN(Cc2cnn(-c3ccccc3)c2-n2cccc2)CC1', 'class 1'),
  ('O=C(NC1CCC(O)CC1)c1ccc(S(=O)(=O)NCc2ccco2)cc1 (configuration not stated)', 'class 0'),
  ('CC1CCC(N2CC(=O)N(Cc3ccc4c(c3)OCO4)C(c3ccc(F)cc3)C2=O)CC1 (configuration not stated)', 'class 0'),
  ('Cc1nc2cc(NC(=O)NCc3ccccc3)ccc2o1', 'class 0'),
  ('CCN(CC)C(=O)CSc1nc2ccccc2o1', 'class 0'),
  ('COc1ccc(C(=O)N2CC3(C)CC2CC(C)(C)C3)cc1OC (configuration not stated)', 'class 0'),
  ('CCOc1ccc(S(=O)(=O)NCCSc2ccccc2)cc1', 'class 0'),
  ('CC(C)(C)NC(=O)Cn1c(SCC(=O)Nc2nccs2)nc2ccccc21', 'class 0'),
  ('COc1cc2c(cc1OC)C(C(=O)NCc1ccco1)C1c3ccccc3CCN1C2=O (configuration not stated)', 'class 0'),
  ('CC(Cc1cccs1)NC(=O)NC1CCCCC1 (configuration not stated)', 'class 0'),
  ('Oc1c(Cl)cc(Cl)c(Cl)c1Cc1c(O)c(Cl)cc(Cl)c1Cl', 'class 1'),
  ('COc1cccc(N=c2oc3c(C)ncc(CO)c3cc2C(N)=O)c1', 'class 1'),
  ('CCn1c(C)nc2c1C(=O)c1ccccc1C2=O', 'class 1'),
  ('COc1ccc(-c2cc(C(F)(F)F)nc(S(C)(=O)=O)n2)cc1OC', 'class 1'),
  ('CCOc1ccccc1C(=O)NCc1ccco1', 'class 1'),
  ('CCN1CCN(C(=O)C2(NC(=O)Nc3cccc(F)c3)CCCCC2)CC1', 'class 0'),
  ('Cc1nc2ccccc2c2oc(C(=O)NCC3CCCO3)cc12 (configuration not stated)', 'class 0'),
  ('CC1CCCN(C(C(=O)Nc2ccc(C(C)C)cc2)c2ccc3c(c2)OCO3)C1 (configuration not stated)', 'class 1'),
  ('Cc1ccc(OC(=O)c2ccccc2C(=O)OCC(F)(F)C(F)F)cc1', 'class 0'),
  ('Cc1ccsc1C(C(=O)NC1CCCCC1)N(C(=O)Cc1cccs1)C1CC1 (configuration not stated)', 'class 1'),
  ('COc1ccc(C2=NOC(C(=O)NCc3ccco3)C2)cc1OC (configuration not stated)', 'class 1'),
  ('c1ccc2c(NCC3CCCO3)nc(-c3ccncc3)nc2c1 (configuration not stated)', 'class 1'),
  ('COCCNC(=O)COc1ccc(C)c(C)c1', 'class 0'),
  ('COCCCn1c(SCC(=O)Nc2ccccc2)nnc1-c1ccncc1', 'class 0'),
  ('Cc1cccc(NC(=O)CSc2nnc(-c3ccco3)o2)c1', 'class 0'),
  ('CCCc1nc2sc3c(c2c(=O)n1NC(=O)CCCl)CCCC3', 'class 1'),
  ('Cc1cccc(Nc2ccccc2C(=O)NCc2ccco2)c1C', 'class 1');
